Test system: IGROV1 ovarian
Assay: NCI-60 one-dose screen, 48 h
Conditions: 10 µM unless noted
The panel holds about 83,000 compounds, 20% with a hit somewhere; the sample as a whole holds those more often. Calls of active or inactive are those of the source. The calls were made as follows: active = growth percent below 10; inactive = the rest.
Outcome codes: TRUE (active), FALSE (inactive)

# Molecule, Group
measured = [
    ("COc1cc(NC(C)CCCN2C(=O)c3ccccc3C2=O)c2nc(C)ccc2c1OC (stereo not given)", "FALSE"),
    ("CCNc1ncnc2n[nH]nc12", "FALSE"),
    ("Cc1ccc(N(CC2=NCCN2)c2cccc(O)c2)cc1", "FALSE"),
    ("O=C1/C(=C/c2cccc3cnccc23)Cc2cc(F)ccc21", "FALSE"),
    ("CCCCNC(=O)Oc1ccc(/C(=C(/CC)Cc2ccccc2)c2ccc(OCCCN(C)C)cc2)cc1", "FALSE"),
    ("CCC(N)(C(=O)O)c1ccc(F)cc1 (stereo not given)", "FALSE"),
    ("O=C(Nc1ccccc1Cl)c1c[nH]c(=O)c(-c2ccc(N3CCCOC4(CC4)C3)cc2)c1", "FALSE"),
    ("COc1ccc(Cl)cc1NC(=O)c1cc2c([nH]1)-c1nc(NC(=O)C(C)C)sc1CC2", "FALSE"),
    ("O=C(Nc1ccc(-n2cc(-c3ccncc3)c(-c3ccc(O)c(Cl)c3)n2)cc1)Nc1cc(C(F)(F)F)cc(C(F)(F)F)c1", "FALSE"),
    ("COc1ccc(Cl)cc1NC(=O)c1cc2c([nH]1)-c1nc(N)sc1CCC2", "FALSE"),
    ("CC(=O)n1cc(/C=C2\\N=C(c3ccc(Cl)cc3)N(c3ccc(S(=O)(=O)Nc4nccs4)cc3)C2=O)c2ccccc21", "FALSE"),
    ("CCOC(=O)NNc1nncc2ccccc12", "FALSE"),
    ("N#CC1=C(N)Oc2c(ccc3ccccc23)C1c1cc(=O)oc2ccc(Cl)cc12 (stereo not given)", "FALSE"),
    ("O=C(Nc1cccc(-n2ccc3c(NC(=O)c4ccccc4)ncnc32)c1)Nc1ccc(Cl)c(C(F)(F)F)c1", "FALSE"),
    ("Cc1nc(-c2ccc(Cl)cc2)ccc1NC(=O)Nc1cccc(C(F)(F)F)c1", "FALSE"),
    ("OCCOCC(F)(F)F", "FALSE"),
    ("CC[C@H]1[C@@H]2C=C[C@@H]3[C@H]4C/C=C\\C(=O)NCCC[C@@H]5NC(=O)/C(=C(O)/C=C/[C@@H]4C[C@@H]3[C@H]2C[C@H]1C)C5=O", "TRUE"),
    ("O=[N+]([O-])c1cccc(C(c2ccccc2)c2ccccc2)c1", "FALSE"),
    ("CCN(CC)CCN1C(=O)c2c(c3c4ccccc4[nH]c3c3[nH]c4ccccc4c23)C1=O", "FALSE"),
    ("NS(=O)(=O)c1ccc(CCN2C(=O)/C(=C\\c3ccc(Cl)cc3)C=C2c2ccc(Oc3ccccc3)cc2)cc1", "FALSE"),
]
